Data provenance is ChEMBL document CHEMBL1141941.

- STUDY SYSTEM: UniProtKB Q99705
- Sequence (Q99705 whole entry): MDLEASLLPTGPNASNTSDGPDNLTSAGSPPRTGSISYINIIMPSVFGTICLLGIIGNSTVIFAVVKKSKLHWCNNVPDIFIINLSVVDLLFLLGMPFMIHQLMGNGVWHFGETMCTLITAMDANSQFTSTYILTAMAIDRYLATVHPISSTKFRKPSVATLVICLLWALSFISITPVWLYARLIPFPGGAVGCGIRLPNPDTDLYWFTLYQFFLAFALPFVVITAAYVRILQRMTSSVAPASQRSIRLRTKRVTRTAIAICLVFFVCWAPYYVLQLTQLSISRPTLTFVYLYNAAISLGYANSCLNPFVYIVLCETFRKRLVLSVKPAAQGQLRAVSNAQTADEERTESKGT
- METHOD SUMMARY: Antagonist activity against human MCH1 receptor
- Assay type: functional
MEASURED PROPERTY: Ki (nM)
The reply should be a number in nM, with the unit left off.

COMPOUND STRUCTURE STRING	MEASURED PROPERTY	VALUE MEASURED
C[C@H](c1ccc(-c2cccc(C#N)c2)cc1)N(CC(=O)Nc1cc(Cl)cc(Cl)c1)C(=O)CN1CC[C@H](O)C1	Ki	31

Reported Ki for UniProtKB Q99705, given N#Cc1cccc(-c2ccc(CN(CCN3CCCC3)C(=O)Nc3ccc(F)c(C(F)(F)F)c3)cc2)c1 ? 159

For UniProtKB Q99705, provide Ki of N#Cc1cccc(-c2ccc(CN(CCN3CCCC3)C(=O)Nc3cc(Cl)cc(Cl)c3)cc2)c1 please. 151

Tell me reported Ki for C[C@@H](c1ccc(-c2cccc(C#N)c2)cc1)N(CC(=O)Nc1cc(Cl)cc(Cl)c1)C(=O)CN1CC[C@H](O)C1 , tested with UniProtKB Q99705. 16

Form entry - test system: UniProtKB Q99705; read-out: Ki; compound: C[C@@H](c1ccc(-c2cccc(C#N)c2)cc1)N(CC(=O)Nc1cc(Cl)cc(Cl)c1)C(=O)CCN1CC[C@H](O)C1 18

Give Ki (UniProtKB Q99705) of the following compound: C[C@H](c1ccc(-c2cccc(C#N)c2)cc1)N(CC(=O)Nc1cc(Cl)cc(Cl)c1)C(=O)CCN1CC[C@H](O)C1 23

Enter reported Ki observed with UniProtKB Q99705 for N#Cc1cccc(-c2ccc(CN(CCN3CCCC3)C(=O)Nc3ccc(F)c(Cl)c3)cc2)c1 287

Request: Ki, test system UniProtKB Q99705, entry N#Cc1cccc(-c2ccc(CN(CCCN3CCCC3)C(=O)Nc3ccc(F)c(C(F)(F)F)c3)cc2)c1 70
